- System: 485368-065-R4-J2-PDC spheroids with HUVEC/MSC, viability;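 note: spheroids exposed to compounds for seven days before readout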
- measurementProtocol: Anticancer human tumor 485368-065-R4-J2-PDC patient-derived pancreatic carcinoma cell line growth inhibition [TAK]; active = viability on the fitted dose curve at most 10% of control; inactive = the rest
- runParameters: second compound 9.49 µM; first compound 0.1 µM
Outcomes you can answer with include only these: active, inactive

Example entries begin here.
CC(C)CC(NC(=O)CNC(=O)c1cc(Cl)ccc1Cl)B1OC(=O)CC(CC(=O)O)(C(=O)O)O1 (stereo unspecified) + CC(C)NCC(C(=O)N1CCN(c2ncnc3c2C(C)CC3O)CC1)c1ccc(Cl)cc1	active
COc1c(OCCCN2CCOCC2)ccc2c3n(c(=NC(=O)c4cnc(N)nc4)nc12)CCN3 + CC(C)NCC(C(=O)N1CCN(c2ncnc3c2C(C)CC3O)CC1)c1ccc(Cl)cc1	inactive
CC(C)(C)c1nc(-c2cccc(NS(=O)(=O)c3c(F)cccc3F)c2F)c(-c2ccnc(N)n2)s1 + CC(C)NCC(C(=O)N1CCN(c2ncnc3c2C(C)CC3O)CC1)c1ccc(Cl)cc1	inactive
CC(C)n1nc(-c2ccc3oc(N)nc3c2)c2c(N)ncnc21 + CC(C)NCC(C(=O)N1CCN(c2ncnc3c2C(C)CC3O)CC1)c1ccc(Cl)cc1	inactive
Cc1nc(NC(=O)N2CCCC2C(N)=O)sc1-c1ccnc(C(C)(C)C(F)(F)F)c1 (stereo unspecified) + CC(C)NCC(C(=O)N1CCN(c2ncnc3c2C(C)CC3O)CC1)c1ccc(Cl)cc1	inactive

Prompt: Per the records of this test, what outcome belongs to COC1CC2CCC(C)C(O)(O2)C(=O)C(=O)N2CCCCC2C(=O)OC(C(C)CC2CCC(OCCO)C(OC)C2)CC(=O)C(C)C=C(C)C(O)C(OC)C(=O)C(C)CC(C)C=CC=CC=C1C (stereo unspecified) + CC(C)NCC(C(=O)N1CCN(c2ncnc3c2C(C)CC3O)CC1)c1ccc(Cl)cc1 ?
Completion: inactive
